This listing pairs compounds with measured activation.
# protocol.description: activators of APP 5'UTR luciferase reporter, primary screen, SH-SY5Y cells (AID 1276)
# measurement.parameters: SH-SY5Y APP 5'UTR luciferase reporter, luminescence; at 2 µM; active compounds read high; zero percent = DMSO vehicle wells
Among all 190,000 compounds or so, about 2,000 (1.1%) were called active. This excerpt belongs to a sample that is enriched for actives.
Only the number, expressed in %, is required.

As a guide, the following entries are already answered.
# compound, experimental.result
records = [
    ("CCc1ccc(-c2nnn(Cc3nc4ccccc4s3)n2)cc1", 0.38),
    ("Cc1cccc(NC(=O)/C=C/c2ccc3c(c2)OCO3)n1", 118),
]

Query: Consider the compound shown here: COC(=O)c1cc2n(n1)CCCNC2=O What is its recorded activation?
Response: -7.46

Query: Follow-up entry: Cc1ccccc1Nc1nc(N)nc(CSc2nnc3ccccn23)n1
Response: 59.9

Query: Follow-up entry: COc1cccc2sc(NNC(=O)c3nc4ccccc4s3)nc12
Response: 7.9

Query: Follow-up entry: CC(C)CNC(=S)NC(=O)c1ccc(Cl)cc1
Response: 37.3

Query: Follow-up entry: O=C(Nc1ccccc1)c1ccc2c(c1)OCO2
Response: -58.8

Query: Follow-up entry: COc1ccc2nc(SCc3ccccc3)nc(C)c2c1
Response: 170

Query: Follow-up entry: C=CCNC(=S)N1CCN(CCN=Cc2c(C)[nH]n(-c3ccc([N+](=O)[O-])cc3)c2=O)CC1
Response: 1.34

Query: Follow-up entry: CN1CCCC(OC(=O)COc2ccc(Br)cc2)C1 (configuration not stated)
Response: 3.06

Query: Follow-up entry: Cc1ccc(C(=O)OCc2nc(N)nc(Nc3ccccc3C)n2)cc1
Response: -2.39

Query: Follow-up entry: COc1cc(NC(=O)CN(C)S(=O)(=O)c2ccc3nc(C)sc3c2)cc(OC)c1
Response: 17.7

====

# protocol.description: activators of APP 5'UTR luciferase reporter, primary screen, SH-SY5Y cells (AID 1276)
# measurement.parameters: SH-SY5Y APP 5'UTR luciferase reporter, luminescence; at 2 µM; active compounds read high; zero percent = DMSO vehicle wells
In all, about 190,000 compounds went through this assay and about 2,000 (1.1%) were called active. Shown is part of a subset that was picked to be rich in actives.
This listing pairs compounds with measured activation.
Only the number, expressed in %, is required.

As a guide, the following entries are already answered.
# given.smiles, experimental.result
data = [
    ("COc1cccc(-n2c(=S)[nH]c3c(oc4ccccc43)c2=O)c1", 23),
    ("O=S(=O)(Nc1ccccn1)c1cccc(S(=O)(=O)c2ccc(Cl)cc2)c1", 8.9),
    ("O=c1c2c(nc3cc(-c4cccc(Cl)c4)[nH]n13)CCCC2", 158),
    ("CCCCCC(=O)Nc1ccc2oc(-c3ccncc3)nc2c1", 7.49),
    ("O=c1c2c(nc3nc[nH]n13)CCC2", 3.94),
    ("NS(=O)(=O)c1ccc(NC(=O)COC(=O)C2(c3ccc(F)cc3)CCCC2)cc1", 5.99),
]

Query: Consider the compound shown here: O=C(c1cnn2ccccc12)N1CCc2ccccc21 What is its recorded activation?
Response: 145

====

# protocol.description: activators of APP 5'UTR luciferase reporter, primary screen, SH-SY5Y cells (AID 1276)
# measurement.parameters: SH-SY5Y APP 5'UTR luciferase reporter, luminescence; at 2 µM; zero percent = DMSO vehicle wells
The whole screen tested about 190,000 compounds, of which about 2,000 (1.1%) were called active.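 Rule for the calls: active = activation above a set limit, based on mean plus 3 SD of controls (cut at about 140% in these data); inconclusive = one replicate above the limit, the other below; inactive = the rest.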 Shown is part of a subset that was picked to be rich in actives.
# valid calls are T for active, F for inactive; nothing else

Before answering, review these 3 worked examples.
# compound, label
data = [
    ("Cc1nonc1NC(=O)CSc1nc2ccccc2cc1C#N", "F"),
    ("CCOc1ccc2cc(C#N)c(SCC(=O)OC)nc2c1", "T"),
    ("Cc1ccc(C(=O)NNC(=O)c2cccs2)cc1", "F"),
]

Query: # fetch the recorded call for O=C(/C=C/c1ccc(N2CCOCC2)cc1)c1ccccc1 here
Response: T

Query: Follow-up entry: COc1ccccc1Oc1ccc(N/C=C2/CCCC2=O)cc1
Response: F

Query: Follow-up entry: COc1ccccc1NC(=O)c1ccc(C)s1
Response: T

====

This listing pairs compounds with measured activation.
# protocol.description: activators of APP 5'UTR luciferase reporter, primary screen, SH-SY5Y cells (AID 1276)
# measurement.parameters: SH-SY5Y APP 5'UTR luciferase reporter, luminescence; at 2 µM; active compounds read high; zero percent = DMSO vehicle wells
Screen size: about 190,000 compounds; about 2,000 (1.1%) were called active. This excerpt belongs to a sample that is enriched for actives.
Only the number, expressed in %, is required.

As a guide, the following entries are already answered.
# compound, activation (%)
rows = [
    ("CC(=O)Nc1cccc(C(=O)Nc2nc(C)cs2)c1", 30.8),
    ("O=C(NCCOc1ccccc1Cl)C(=O)Nc1ccccc1", 0.2),
    ("CCOc1ccc2nc(NCCNS(=O)(=O)c3ccccc3)c(C#N)cc2c1", 6.65),
    ("Clc1ccc2nc(CSc3ccccc3)cn2c1", 216),
]

Now examine the next entry.
Query: Consider the compound shown here: COc1cc(NC(=O)c2cccs2)ccc1NC(=O)c1ccccc1Cl What is its recorded activation?
Response: 37.2

====

# protocol.description: activators of APP 5'UTR luciferase reporter, primary screen, SH-SY5Y cells (AID 1276)
# measurement.parameters: SH-SY5Y APP 5'UTR luciferase reporter, luminescence; at 2 µM; active compounds read high; zero percent = DMSO vehicle wells
Hit rate of the full screen: of about 190,000 compounds, about 2,000 (1.1%) were called active. For the sample, actives were picked, then their nearest neighbours and some compounds at random.
This listing pairs compounds with measured activation.
Only the number, expressed in %, is required.

Query: Consider the compound shown here: O=C(NCCc1ccccc1)c1ccc(OCCOc2ccccc2)cc1 What is its recorded activation?
Response: 4.18

====

# protocol.description: activators of APP 5'UTR luciferase reporter, primary screen, SH-SY5Y cells (AID 1276)
# measurement.parameters: SH-SY5Y APP 5'UTR luciferase reporter, luminescence; at 2 µM; active compounds read high; zero percent = DMSO vehicle wells
Hit rate of the full screen: of about 190,000 compounds, about 2,000 (1.1%) were called active. What follows is part of a selection rich in actives, with near analogues and random picks from the rest.
This listing pairs molecules with measured activation.
Only the number, expressed in %, is required.

As a guide, the following entries are already answered.
# molecule, activation (%)
rows = [
    ("COc1ccc(C(=O)/C=C/Nc2ccccn2)cc1", 134),
    ("O=C(Nc1ccc2nc3n(c(=O)c2c1)CCCCC3)c1ccccc1Cl", 22),
    ("CC1COc2ccccc2N1S(=O)(=O)c1ccccc1 (centres undefined)", -2.45),
    ("c1ccc(Nc2nc(-c3ccncc3)cs2)nc1", 158),
    ("COc1cccc(CN(C)CC(=O)NCc2ccccc2Cl)c1OC", 7.69),
    ("Cc1nc2ccccc2nc(=O)c1NNc1ccc([N+](=O)[O-])cc1", -4.38),
    ("CC(CC(=O)O)CC(=O)NNC(=O)c1cccc(Br)c1 (centres undefined)", 7.74),
    ("Cc1nn2cc(-c3ccc(Cl)cc3)cnc2c1Br", 208),
    ("Cc1cccc(C(=O)c2cccc(C)c2)c1", 7.97),
    ("CCCOc1ccc(C(=O)NCCc2ccccc2)cc1", 156),
]

Query: Consider the molecule shown here: CC1=NNC(=O)C1CCC(=O)N/N=C\c1cccc(Cl)c1 (centres undefined) What is its recorded activation?
Response: 0.72

Query: Follow-up entry: O=C(O)Cc1sc(-c2ccc(C(=O)O)cc2)nc1-c1ccccc1
Response: 19.5

Query: Follow-up entry: Cc1ccc(NC(=O)Nc2ccc3oc(C)nc3c2)cc1
Response: 145

Query: Follow-up entry: CCN(C(=O)Cc1nc(N)n[nH]1)C1(C(=O)Nc2ccccc2)CCCCC1
Response: -3.52
